- procedure text: protein stability index of a GFP-peptide fusion (GPS, HEK-293T) (PSI 1-6); higher = more stable;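 also: 24-mer peptide tiles fused after GFP, lentivirally expressed, FACS-sorted into six equal bins by GFP/DsRed ratio, decoded by Illumina sequencing, PSI is the read-weighted mean bin number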
- assay conditions: treatment: MLN4924 1 uM, 8 h; c terminus: a fixed tail appended
protein stability index values for the sequences below.
Write no unit; give the number alone.

Exam item: Dear colleague, I am looking for the recorded protein stability index of the following sequence: ALAAIYEEKEAWYREESDSLGQDL [DAPK3]
Marked response: 4.6

Exam item: Next up: NYQAHQSRVTMILFVLELEWVLST [WDFY2]
Marked response: 2.89

Exam item: Next up: PDDSTSEDGIHTLTCALMLLNTDL [PSD2]
Marked response: 3.1

Exam item: Next up: ADSSAQAAAQAPENFQEGKDMSES [TAF7L]
Marked response: 5.49

Exam item: Next up: ASMSKRRCGVGVSVLDDLLYAVGG [KLHL20]
Marked response: 2.13

Exam item: Next up: RESCPPLGLETLKITDFQLHASTV [CPXM2]
Marked response: 3.32

Exam item: Next up: LFDMCGISEAQLKDRETSKVIYDF [WASL]
Marked response: 2.7

Exam item: Next up: LAARVIVNHRIYYKGHIPEKLETF [FEM1C]
Marked response: 2.47

***
Exam item: Dear colleague, I am looking for the recorded protein stability index of the following sequence: NTRFVVDPSIFTAQPNTMLGRMFG [BTBD10]
Marked response: 2.44
